Reported log2 fold change of degron read counts values for the following sequences.
- system under test: T1, CRBN, Q96SW2;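 note: pooled lentiviral library of zinc finger degron-EGFP fusions in mCherry-positive Jurkat cells, FACS-sorted after compound exposure, with degron abundance counted by next-generation sequencing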
- T1 chain: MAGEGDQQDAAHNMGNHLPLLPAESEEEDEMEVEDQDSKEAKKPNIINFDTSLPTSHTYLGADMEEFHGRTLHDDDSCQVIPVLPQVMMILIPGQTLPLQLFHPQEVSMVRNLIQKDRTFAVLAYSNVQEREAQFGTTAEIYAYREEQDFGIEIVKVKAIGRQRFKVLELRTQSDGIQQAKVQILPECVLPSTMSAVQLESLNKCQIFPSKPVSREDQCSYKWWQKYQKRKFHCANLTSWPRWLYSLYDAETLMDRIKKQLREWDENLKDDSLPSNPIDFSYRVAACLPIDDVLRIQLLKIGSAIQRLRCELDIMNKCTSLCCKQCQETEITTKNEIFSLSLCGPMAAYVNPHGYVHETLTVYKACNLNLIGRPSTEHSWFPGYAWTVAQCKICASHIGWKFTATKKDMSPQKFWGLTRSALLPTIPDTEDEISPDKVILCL
- protocol: log2 fold change of degron read counts, EGFP-low vs EGFP+ sorted cells (limma voom), compound-induced degradation; higher = more compound-induced degradation of the degron-EGFP fusion; degrons are variants of IKZF1/3 zinc finger 2; compound dose not given here
- run parameters: Jurkat; 18 h; compound: compound 33 (diphenyl IMiD analogue)
Whole data set: some 8,300 sequences, median “log2 fold change of degron read counts, EGFP-low vs EGFP+ sorted cells (limma voom), compound-induced degradation” near -1.1, cut for the highest 2% near 3.2. Only a selection was taken, and the highest values are over-represented in it overall.
Please give only the number in your answer, with no unit.

# annotated cases, reported log2 fold change of degron read counts shown
[[record]]
entry_sequence = "FRCNVCGAPFTQKGNLLRHIKL [46F_47R_49N_50V_52G_53A_54P_55F_67L_, Q9UKT9]"
quantitative_result = 2.94

[[record]]
entry_sequence = "FECEICGHHFTQKGNLLRHIKL [46F_47E_49E_50I_52G_53H_54H_55F_67L_, Q9UKT9]"
quantitative_result = -3.12

[[record]]
entry_sequence = "FQCDVCGAPFTQKGNLLRHIKL [46F_47Q_49D_50V_52G_53A_54P_55F_67L_, Q9UKT9]"
quantitative_result = -0.0653

[[record]]
entry_sequence = "FGCDVCGAPFTQKGNLLRHIKL [46F_47G_49D_50V_52G_53A_54P_55F_67L_, Q9UKT9]"
quantitative_result = -2.07

[[record]]
entry_sequence = "FYCNICGAPFTQKGNLLRHIKL [46F_47Y_49N_50I_52G_53A_54P_55F_67L_, Q9UKT9]"
quantitative_result = 2.43

[[record]]
entry_sequence = "FFCDVCGAPFTQKGNLLRHIKL [46F_47F_49D_50V_52G_53A_54P_55F_67L_, Q9UKT9]"
quantitative_result = 0.307

[[record]]
entry_sequence = "FRCPVCGAPFTQKGNLLRHIKL [46F_47R_49P_50V_52G_53A_54P_55F_67L_, Q9UKT9]"
quantitative_result = 3.27

[[record]]
entry_sequence = "FQCDQCGAWFTQKGNLLRHIKL [46F_47Q_49D_50Q_52G_53A_54W_55F_67L_, Q9UKT9]"
quantitative_result = -1.93


Problem: Which log2 fold change of degron read counts is listed for FVCNQCGAPFTQKGNLLRHIKL [46F_47V_49N_50Q_52G_53A_54P_55F_67L_, Q9UKT9] ?
Result: -0.000403

Problem: And for FRCDVCGAPFTQKGNLLRHIKL [46F_47R_49D_50V_52G_53A_54P_55F_67L_, Q9UKT9] ?
Result: 3.21
